System: SK-MEL-28 melanoma
Test: NCI tumour cell line growth inhibition, 48 h
Measure Name: TGI

compound=COc1ccc2cc(NC(=O)N/N=C\c3ccc(Cl)cc3)ccc2c1 assay_system="SK-MEL-28 melanoma" measure_name=TGI result="> 100 µM"
compound=CC(C)C(=O)NC(=S)Nc1ccc([N+](=O)[O-])cc1C#N assay_system="SK-MEL-28 melanoma" measure_name=TGI result="> 100 µM"
compound=O=c1/c(=C/c2ccco2)sc2nc3ccccc3n12 assay_system="SK-MEL-28 melanoma" measure_name=TGI result="> 100 µM"
compound=Nc1ccc(S(=O)(=O)Nc2nc3ccccc3nc2N2CCCCC2)cc1 assay_system="SK-MEL-28 melanoma" measure_name=TGI result="> 100 µM"
compound=N#Cc1cc([N+](=O)[O-])ccc1NC(=O)C(=O)Nc1n[nH]c(N)n1 assay_system="SK-MEL-28 melanoma" measure_name=TGI result="> 100 µM"

[ask] Quickly give me recorded TGI for COc1cc(/C=C\C(=O)O)ccc1OCc1ccccc1
[reply] > 100 µM

[ask] Indicate its recorded TGI; the compound in question is COCc1nc2c(OC)cc(-c3nc4ccc(N5CCN(C)CC5)cc4[nH]3)c(OC)c2[nH]1
[reply] > 100 µM

[ask] Recall and state the measured TGI for Brc1cc2nn(-c3ccccc3)nc2c2nonc12 .
[reply] > 100 µM

[ask] Give TGI for the following compound: COc1ccc2c(c1)CN1C(=N2)CSC1c1ccccc1Cl (stereo unspecified)
[reply] 26.9 µM

[ask] Return reported TGI. Input compound: Cn1c([O-])nc(-n2cc[n+](C)c2)cc1=O
[reply] > 100 µM

[ask] Retrieve TGI measured for C=CCOCCCCC(C(C)=O)C(=O)OC (stereo unspecified) and print it.
[reply] > 100 µM
